Data origin, for the record: patent US20230357429A1

So I've got a bunch of binders here, and I need their IC50 values.
# assayedSystem: T1, TBD-17 (HC S104A)
# T1 construct: Fab; also called HC S104A mutant
# T1 sequence (VH, as listed by the source, chain 1 of 2): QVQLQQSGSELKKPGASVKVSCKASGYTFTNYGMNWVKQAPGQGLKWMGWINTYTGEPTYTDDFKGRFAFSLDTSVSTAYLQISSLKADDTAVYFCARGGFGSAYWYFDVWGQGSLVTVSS
# T1 sequence (VL, as listed by the source, chain 2 of 2): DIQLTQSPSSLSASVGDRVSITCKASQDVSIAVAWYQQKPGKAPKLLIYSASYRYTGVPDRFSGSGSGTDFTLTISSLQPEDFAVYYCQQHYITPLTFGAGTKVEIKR
# assayDetails: competition ELISA, peptide vs Fab binding to captured biotin-TROP2
Where no end group is shown, it is not given here.
Could you give me the number in nM? Just the number is fine.

[Q] Reported IC50, binder VDFCKIYSWPVCHQ (cysteine pairing not given here; also: biotinylated (site not given here)) [Peptide-25] : ____
[A] 3040

[Q] What IC50 value was documented for this binder, LDFCKIYDWPICHL (cysteine pairing not given here; also: biotinylated (site not given here)) [Peptide-14] ?
[A] 5720

[Q] So what's the measured IC50 for this one? SYLVCVKNVYCWTA (cysteine pairing not given here; also: biotinylated, site not given here) [Peptide-29]
[A] 1110

[Q] Request the reported IC50 associated with IDFCAIYQWPVCRS (cysteine pairing not given here; also: biotinylated (site not given here)) [Peptide-10]
[A] 1520
